# ASSAY_SYSTEM: Protein kinase C from pig brain
# PROCEDURE_DETAILS: Determination of the inhibitory action on protein kinase C
# MEASUREMENT_PARAMETERS: method of Fabbro et al., read-out: IC50, inhibition of protein kinase C
# Protocol: Protein kinase C from pig brain is used to determine the inhibitory action on protein kinase C. The inhibitory action of the compounds of formula I on protein kinase C is determined by the method of D. Fabbro et al, as described in Example 2. […] 0.1 to 30 μmol/liter. Protein kinase C from pig brain purified in accordance with the procedure described by T. Uchida and C. […] The inhibitory action of the compounds of formula I on protein kinase C is determined by the method of D. Fabro et al., Arch. […]
pIC50 reference
# log scale: pIC50 equals minus log10 of the concentration in mol/L

> print(dat)
                                 mol.smiles   val
1  c1cncc(-c2ccnc(Nc3cccc(-n4ccnc4)c3)n2)c1  5.06
2  NCCCNC(=O)c1cccc(Nc2nccc(-c3cccnc3)n2)c1  4.55
3           Nc1cccc(Nc2nccc(-c3cccnc3)n2)c1  4.55
4          Clc1cccc(Nc2nccc(-c3cccnc3)n2)c1  5.20
5    FC(F)(F)c1cccc(Nc2nccc(-c3cccnc3)n2)c1  5.60

Turning to the following compound.
Enter reported pIC50 observed with Protein kinase C from pig brain for COC(=O)c1cccc(Nc2nccc(-c3cccnc3)n2)c1
4.59
